Where do the numbers come from? From paper PMC8881512.

molecular target: LATS2 (Homo sapiens, UniProt Q9NRM7)
Sequence (Q9NRM7 whole entry): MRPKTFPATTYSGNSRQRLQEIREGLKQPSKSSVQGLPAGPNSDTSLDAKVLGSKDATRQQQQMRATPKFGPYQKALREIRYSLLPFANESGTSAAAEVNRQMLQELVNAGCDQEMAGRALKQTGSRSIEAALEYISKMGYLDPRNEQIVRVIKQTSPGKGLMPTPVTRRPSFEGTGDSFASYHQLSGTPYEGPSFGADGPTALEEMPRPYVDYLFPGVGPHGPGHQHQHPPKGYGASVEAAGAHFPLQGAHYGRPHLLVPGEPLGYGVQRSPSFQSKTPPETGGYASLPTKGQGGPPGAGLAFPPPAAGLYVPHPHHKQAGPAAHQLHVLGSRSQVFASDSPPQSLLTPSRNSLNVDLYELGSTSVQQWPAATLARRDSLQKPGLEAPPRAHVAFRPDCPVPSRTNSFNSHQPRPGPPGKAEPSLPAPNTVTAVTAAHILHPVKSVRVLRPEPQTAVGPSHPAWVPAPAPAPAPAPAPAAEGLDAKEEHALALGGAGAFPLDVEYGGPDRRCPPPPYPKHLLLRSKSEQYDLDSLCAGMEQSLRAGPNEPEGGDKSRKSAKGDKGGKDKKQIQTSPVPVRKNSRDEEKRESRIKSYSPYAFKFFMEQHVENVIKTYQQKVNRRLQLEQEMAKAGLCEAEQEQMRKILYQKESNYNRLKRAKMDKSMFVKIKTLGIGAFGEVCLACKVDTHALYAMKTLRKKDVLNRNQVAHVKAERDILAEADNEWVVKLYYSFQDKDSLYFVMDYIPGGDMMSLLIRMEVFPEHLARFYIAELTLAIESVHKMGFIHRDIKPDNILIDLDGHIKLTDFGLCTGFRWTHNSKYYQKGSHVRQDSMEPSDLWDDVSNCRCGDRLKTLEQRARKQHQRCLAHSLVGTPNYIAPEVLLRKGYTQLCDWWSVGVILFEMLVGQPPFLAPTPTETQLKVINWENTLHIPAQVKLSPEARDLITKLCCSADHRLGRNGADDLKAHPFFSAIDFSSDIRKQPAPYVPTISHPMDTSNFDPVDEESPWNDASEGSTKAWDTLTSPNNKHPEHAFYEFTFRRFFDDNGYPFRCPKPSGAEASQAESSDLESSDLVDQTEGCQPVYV
measure: IC50 (nM)
Give just the number in nM; leave the unit off.

Ask: Could you please provide reported IC50 for `NCC1CCN(c2nc(-c3ccncc3)nc3c(C#CCO)cccc23)CC1` ? Thanks!
Result: 0.52

----------
Target: LATS1 (Homo sapiens, UniProt O95835)
Sequence (O95835 1-1130): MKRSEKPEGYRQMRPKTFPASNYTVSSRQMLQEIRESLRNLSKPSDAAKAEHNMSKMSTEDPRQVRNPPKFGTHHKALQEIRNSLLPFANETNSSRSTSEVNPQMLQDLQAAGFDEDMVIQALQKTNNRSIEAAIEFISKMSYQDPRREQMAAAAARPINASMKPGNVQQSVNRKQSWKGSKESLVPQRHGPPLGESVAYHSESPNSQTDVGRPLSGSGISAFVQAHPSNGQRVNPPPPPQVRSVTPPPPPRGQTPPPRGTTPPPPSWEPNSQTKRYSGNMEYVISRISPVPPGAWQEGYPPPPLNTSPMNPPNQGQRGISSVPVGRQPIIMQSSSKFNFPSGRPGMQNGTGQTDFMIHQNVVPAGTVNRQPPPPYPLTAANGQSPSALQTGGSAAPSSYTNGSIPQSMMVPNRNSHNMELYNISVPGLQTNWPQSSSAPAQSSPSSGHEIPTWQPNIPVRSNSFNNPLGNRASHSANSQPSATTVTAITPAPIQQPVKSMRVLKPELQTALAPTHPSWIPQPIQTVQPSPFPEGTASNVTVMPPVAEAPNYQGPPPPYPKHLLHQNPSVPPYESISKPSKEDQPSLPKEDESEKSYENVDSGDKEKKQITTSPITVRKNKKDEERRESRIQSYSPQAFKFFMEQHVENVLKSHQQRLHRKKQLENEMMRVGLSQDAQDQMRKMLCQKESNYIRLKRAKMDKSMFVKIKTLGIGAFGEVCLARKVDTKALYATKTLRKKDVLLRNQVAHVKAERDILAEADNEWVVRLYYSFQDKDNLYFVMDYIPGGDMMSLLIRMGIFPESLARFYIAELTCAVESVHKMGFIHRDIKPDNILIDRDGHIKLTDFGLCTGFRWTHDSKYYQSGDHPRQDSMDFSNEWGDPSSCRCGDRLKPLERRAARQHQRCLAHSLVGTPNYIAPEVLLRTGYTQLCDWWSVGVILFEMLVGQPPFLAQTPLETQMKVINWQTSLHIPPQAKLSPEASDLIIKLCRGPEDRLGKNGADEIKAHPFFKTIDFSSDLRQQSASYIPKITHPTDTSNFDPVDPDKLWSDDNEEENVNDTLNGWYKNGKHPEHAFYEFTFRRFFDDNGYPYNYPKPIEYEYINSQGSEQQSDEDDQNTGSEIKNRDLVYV
measure: pIC50
Keep in mind that pIC50 stands for -log10 of concentration in molar terms.

Ask: Specify pIC50 for `NCC1CCN(c2nc(-c3ccncc3)nc3c(C#CCO)cccc23)CC1` and stop.
Result: 9.12
